# Assay summary: chemical genetic growth profiling, strain panel (AID 1159580);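 note: tested at 20 µM; growth read once vehicle control cultures reached saturation at 30 °C; 1 = growth at the plate median or of vehicle wells; lower values mean less growth of the strain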
# Assay setup: S. cerevisiae deletion strains, growth OD, locus YJL129C, strain trk1, stronger effect = lower value
About 2,000 (36%) of roughly 5,500 compounds were called active. About 18% were inconclusive and are not listed. Some of the results follow.
Observable: normalized growth

Compound	Recorded result
CC1(C)O[C@@H]2[C@@H](CO[C@@]3(COS(N)(=O)=O)OC(C)(C)O[C@@H]23)O1	1.01
Nc1nc2c(c(=O)[nH]1)N(C=O)C(CNc1ccc(C(=O)N[C@@H](CCC(=O)O)C(=O)O)cc1)CN2 (stereo not given in full)	0.954
CC(Cc1ccc(O)c(O)c1)(NN)C(=O)O (stereo not given)	1.02
O=C(O)CCC(=O)c1ccc(-c2ccccc2)cc1	0.915
CC[C@]1(O)CC2CN(CCc3c([nH]c4ccccc34)[C@@](C(=O)OC)(c3cc4c(cc3OC)N(C=O)[C@H]3[C@@](O)(C(=O)OC)[C@H](OC(C)=O)[C@]5(CC)C=CCN6CC[C@]43[C@@H]65)C2)C1 (stereo not given in full)	1.01
O=C(O)CCCCC1SCC2NC(=O)NC21 (stereo not given)	0.954
CCCN(CCC)C(=O)C(CCC(=O)O)NC(=O)c1ccccc1 (stereo not given)	0.968
OC1CCCCC1N1CCC(c2ccccc2)CC1 (stereo not given)	1.02
CN(Cc1cnc2nc(N)nc(N)c2n1)c1ccc(C(=O)NC(CCC(=O)O)C(=O)O)cc1 (stereo not given)	0.89
C[C@](N)(Cc1ccc(O)c(O)c1)C(=O)O	0.973

----------
# Assay summary: chemical genetic growth profiling, strain panel (AID 1159580)
# Assay setup: S. cerevisiae deletion strains, growth OD, locus YGL240W, strain doc1, stronger effect = lower value
Hit rate of the full screen: of about 5,500 compounds, about 2,000 (36%) were called active. Roughly 18% stayed inconclusive and do not appear here. The list shows a part of the results.
normalized growth reference

Compound	normalized growth
N[C@@H](CCC(=O)N[C@@H](CCSC(CC(=O)O)C(=O)O)C(=O)NCC(=O)O)C(=O)O (stereo partly specified)	0.999
CC1(C)CC2C1CCC1(C)OC2(C)CCC1O (stereo unspecified)	1.03
O=C(O)CCCCC1SCC2NC(=O)NC21 (stereo unspecified)	0.985
COc1ccc(/C=C/C(=O)c2cc(O)ccc2O)cc1	0.48
CC12CCCC(O)(C1)C1CC(C)(C)C1CC2 (stereo unspecified)	0.915
CC(=O)OCC(=O)[C@@]12OC(C)(C)O[C@@H]1CC1C3C[C@H](F)C4=CC(=O)C=C[C@]4(C)[C@@]3(F)[C@@H](O)C[C@@]12C (stereo partly specified)	1.01
C=CCN1CC[C@]23c4c5ccc(O)c4OC2C(=O)CC[C@@]3(O)[C@H]1C5 (stereo partly specified)	0.961
CCn1cc(C(=O)O)c(=O)c2cc3c(cc21)OCO3	0.988
COc1ccc(/C=C/C(=O)c2ccc(O)cc2O)cc1	0.349
CC[C@]1(O)CC2CN(CCc3c([nH]c4ccccc34)[C@@](C(=O)OC)(c3cc4c(cc3OC)N(C=O)[C@H]3[C@@](O)(C(=O)OC)[C@H](OC(C)=O)[C@]5(CC)C=CCN6CC[C@]43[C@@H]65)C2)C1 (stereo partly specified)	0.966
CC12CCC3C(CC=C4CC(O)CCC43C)C1CCC2=O (stereo unspecified)	0.911
COc1ccccc1OCC(O)CN1CCN(CC(=O)Nc2c(C)cccc2C)CC1 (stereo unspecified)	0.987
COc1cc(/C=C/C(=O)O)ccc1O	1.02
C[C@](N)(Cc1ccc(O)cc1)C(=O)O	1.01
CC1(C)O[C@@H]2[C@@H](CO[C@@]3(COS(N)(=O)=O)OC(C)(C)O[C@@H]23)O1	0.991
CC1(C)CC2C1CCC1(C)OC1CCC2(C)O (stereo unspecified)	1.04
CC(=O)O[C@H]1CC[C@@]2(C)C(=CCC3C2CC[C@@]2(C)C3CC[C@@H]2C(C)CCCC(C)C)C1 (stereo partly specified)	0.969
CCn1cc(C(=O)O)c(=O)c2cnc(N3CCNCC3)nc21	0.988
C[C@](N)(Cc1ccc(O)c(O)c1)C(=O)O	0.998
CCn1cc(C(=O)O)c(=O)c2ccc(C)nc21	0.834
CC(=O)O[C@H]1CC[C@@]2(C)C(=CCC3C2CC[C@]2(C)C(=O)CCC32)C1 (stereo partly specified)	1.02

----------
# Assay summary: chemical genetic growth profiling, strain panel (AID 1159580)
# Assay setup: S. cerevisiae deletion strains, growth OD, locus YGL167C, strain pmr1, stronger effect = lower value
The campaign covered roughly 5,500 compounds. About 2,000 (36%) were called active. Another 18% or so got no clear call; they are omitted. The list shows a part of the results.
normalized growth reference
Observable: normalized growth

>>> df
                                   molecule  recorded_result
0                 O=c1cccc2n1C[C@H]1CNCC2C1            0.994
1  CC12CCCC(O)(C1)C1CC(C)(C)C1CC2 (configuration not stated)            0.999
2  CC1(C)CC2C1CCC1(C)OC1CCC2(C)O (configuration not stated)             1.03
3  Nc1nc(N)c2nc(CNc3ccc(C(=O)NC(CCC(=O)O)C(=O)O)cc3)cnc2n1 (configuration not stated)            0.974
4  CN(Cc1cnc2nc(N)nc(N)c2n1)c1ccc(C(=O)NC(CCC(=O)O)C(=O)O)cc1 (configuration not stated)            0.942
5                   O=C(O)c1cc(O)c(O)c(O)c1             1.02
6  C[C@@H]1C[C@@H]([C@H](O)CC2CC(=O)NC(=O)C2)C(=O)[C@@H](C)C1           0.0714

----------
normalized growth reference
# Assay summary: chemical genetic growth profiling, strain panel (AID 1159580);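 note: tested at 20 µM; growth read once vehicle control cultures reached saturation at 30 °C; 1 = growth at the plate median or of vehicle wells; lower values mean less growth of the strain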
# Assay setup: S. cerevisiae deletion strains, growth OD, locus YDL074C, strain BRE1, stronger effect = lower value
Out of some 5,500 compounds screened, about 2,000 (36%) were called active. Inconclusive results (about 18%) are left out. This is one part of the list.
Observable: normalized growth

>>> df
                                   compound  recorded_result
0                        CCOP(=S)(OCC)SCSCC            0.963
1                        CCCSP(=O)(OCC)SCCC             1.07
2     CN=C1CN(O)C(c2ccccc2)=c2cc(Cl)ccc2=N1            0.965
3  C=CCN1CC[C@]23c4c5ccc(O)c4OC2C(=O)CC[C@@]3(O)[C@H]1C5 (some centres not stated)             1.05
4                       CCOP(=S)(OCC)SCCSCC            0.896
5             CCOc1ccc2c(c1)C(C)=CC(C)(C)N2            0.973
6  CC[C@]12CCCN3CCc4c(n(c5ccccc45)[C@](O)(C(=O)OC)C1)[C@@H]32            0.991

----------
# Assay summary: chemical genetic growth profiling, strain panel (AID 1159580);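 note: tested at 20 µM; growth read once vehicle control cultures reached saturation at 30 °C; 1 = growth at the plate median or of vehicle wells; lower values mean less growth of the strain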
# Assay setup: S. cerevisiae deletion strains, growth OD, locus YOL006C, strain TOP1, stronger effect = lower value
Out of some 5,500 compounds screened, about 2,000 (36%) were called active. About 18% were inconclusive and are not listed. The list shows a part of the results.
normalized growth reference
Observable: normalized growth

In [3]: df
Out[3]:
                                 mol_smiles  recorded_result
0  CC(=O)OC/C=C(C)/C=C/C=C(C)/C=C/C1=C(C)CCCC1(C)C             1.06
1               COC(=O)c1ccc(C#Cc2ccccc2)o1            0.349
2                 C=CCc1cc(OC)c2c(c1OC)OCO2            0.589
3                              COS(C)(=O)=O             1.03
4                       Cc1ccc(CSC(=N)N)cc1             1.03
5  CC1=C(/C=C/C(C)=C/C=C/C(C)=C/CO)C(C)(C)CCC1            0.929
6                    Cc1ccc(CS/C(N)=N\N)cc1            0.854

----------
# Assay summary: chemical genetic growth profiling, strain panel (AID 1159580);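 note: tested at 20 µM; growth read once vehicle control cultures reached saturation at 30 °C; 1 = growth at the plate median or of vehicle wells; lower values mean less growth of the strain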
# Assay setup: S. cerevisiae deletion strains, growth OD, locus YKL085W, strain MDH1 (second series), stronger effect = lower value
Screen size: about 5,500 compounds; about 2,000 (36%) were called active. About 18% were inconclusive and are not listed. This is one part of the list.
normalized growth reference
Observable: normalized growth

>>> df
                                    compound   recorded_result
 0                            NC(=O)c1cnccn1   1.01 (inactive)
 1                COc1cc(C(=O)O)c(O)c2c1OCO2      1 (inactive)
 2  C=CCN1CC[C@]23c4c5ccc(O)c4OC2C(=O)CC[C@@]3(O)[C@H]1C5 (stereo partly specified)      1 (inactive)
 3  C[C@H](COc1ccccc1)N[C@H](C)[C@H](O)c1ccc(O)cc1  0.977 (inactive)
 4  CC(COc1ccccc1)N(CCCl)Cc1ccccc1 (stereo unspecified)   1.01 (inactive)
 5  CC[C@@H]1[C@@H](O)N2C3C[C@H]1C1C(O)[C@]4(C[C@@H]12)c1ccccc1N(C)[C@@H]34 (stereo partly specified)  0.997 (inactive)
 6  COc1cc(C)c2c(c1C=O)Oc1c(c(C)c(O)c3c1C(O)OC3=O)OC2=O (stereo unspecified)  0.968 (inactive)
 7                 O=c1cccc2n1C[C@H]1CNCC2C1      1 (inactive)
 8  CC(=O)Oc1cc(C)c2c(c1C(OC(C)=O)OC(C)=O)Oc1c(c(C)c(OC(C)=O)c3c1C(OC(C)=O)OC3=O)OC2=O (stereo unspecified)   0.97 (inactive)
 9  c1cc2c(cc1[C@H]1OC[C@H]3[C@@H]1CO[C@H]3c1ccc3c(c1)OCO3)OCO2    0.915 (active)
10                 C=CCc1cc(OC)c2c(c1OC)OCO2  0.939 (inactive)
